From: patent US20060251597A1

- Method description: anti-odor test, three-member panel by sniffing: sulfone or organic amine in composition containing water or alcohol (solution, oil-in-water emulsion)
- Measurement conditions: 10% N-acetyl-L-cysteine and 5% anti-odor ingredient in water
Readout name: malodor as judged by panel

Examples with their reported malodor as judged by panel follow.
CCOC(=O)CC(C)=O [ethyl acetoacetate] : did not have any malodor
O=S(=O)(c1ccccc1)c1ccccc1 : did not have any malodor
CS(C)(=O)=O : did not have any malodor
Cc1cc(S(=O)(=O)c2ccc(O)c(C)c2)ccc1O : did not have any malodor

Shift focus to the following entry.
Reported malodor as judged by panel for COC(=O)c1ccc(S(=O)(=O)c2ccc(C(=O)OC)cc2)cc1 [4,4′-sulfonyl-bis(methylbenzoate)] : what is it?
did not have any malodor
